- targetOfAssay: T1, IL-18Rα/β heterodimer (Fc fused human IL-18Rα mixed and pre-incubated with Fc fused human IL-18Rβ) (human, UniProt Q13478 19-329; O95256 20-356, limits assumed)
- T1 construct: 6 µg/mL of each receptor mixed and pre-incubated 30 min before capture on anti-human IgG; also called alpha/beta heterodimer IL-18 receptor; not shown: Fc part
- T1 sequence (looked up) 1: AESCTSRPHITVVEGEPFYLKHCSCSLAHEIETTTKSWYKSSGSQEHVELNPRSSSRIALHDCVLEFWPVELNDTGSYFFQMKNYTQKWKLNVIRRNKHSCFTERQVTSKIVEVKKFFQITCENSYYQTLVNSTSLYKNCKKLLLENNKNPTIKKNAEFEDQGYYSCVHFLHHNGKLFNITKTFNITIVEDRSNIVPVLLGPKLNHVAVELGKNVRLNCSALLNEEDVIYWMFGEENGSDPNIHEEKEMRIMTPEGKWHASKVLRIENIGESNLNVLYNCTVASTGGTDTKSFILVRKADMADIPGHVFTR
- T1 sequence (looked up) 2: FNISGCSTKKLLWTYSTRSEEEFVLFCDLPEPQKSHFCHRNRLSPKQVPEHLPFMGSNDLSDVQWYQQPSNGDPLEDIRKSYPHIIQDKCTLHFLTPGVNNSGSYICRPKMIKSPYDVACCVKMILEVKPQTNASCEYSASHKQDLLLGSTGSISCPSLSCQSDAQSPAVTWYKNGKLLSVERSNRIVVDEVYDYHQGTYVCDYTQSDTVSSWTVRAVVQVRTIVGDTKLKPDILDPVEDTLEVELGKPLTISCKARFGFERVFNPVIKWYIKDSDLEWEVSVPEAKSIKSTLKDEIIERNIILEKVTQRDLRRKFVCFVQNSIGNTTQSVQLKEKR
- protocolNotes: SPR, Fc-IL-18Rα/Fc-IL-18Rβ mix captured, heterogeneous ligand model
- Description: The interaction of the wild type and of modified IL-18 polypeptides with human IL-18 receptor subunits were measured with Surface Plasmon Resonance (SPR) technology. […] The kinetic binding of the IL-18 analytes were measured with a Biacore 8K instrument in two-fold serial dilutions starting at 1 μM down to 0.98 nM. […]
In this section, each of the binders is paired with its reported log10 of kon.
metric: log10 of kon (log10 of the value in M⁻¹ s⁻¹)

binder	readoutNumber
Modified IL-18 polypeptide of SEQ ID NO: 16 (C38S, C68S, C76S, C127S, K70C) (ligand) YFGKLESKLSVIRNLNDQVLFIDQGNRPLFEDMTDSDSRDNAPRTIFIISMYKDSQPRGMAVTISVKSECISTLSSENKIISFKEMNPPDNIKDTKSDIIFFQRSVPGHDNKMQFESSSYEGYFLASEKERDLFKLILKKEDELGDRSIMFTVQNED	5.20
Modified IL-18 polypeptide of SEQ ID NO: 15 (C38S, C68S, C76S, C127S) (ligand) YFGKLESKLSVIRNLNDQVLFIDQGNRPLFEDMTDSDSRDNAPRTIFIISMYKDSQPRGMAVTISVKSEKISTLSSENKIISFKEMNPPDNIKDTKSDIIFFQRSVPGHDNKMQFESSSYEGYFLASEKERDLFKLILKKEDELGDRSIMFTVQNED	4.84
Modified IL-18 polypeptide of SEQ ID NO: 71 with a 30 kDa PEG attached at residue C68 (E6K, C38S, K53A, C68-30kDPEG) (ligand, 30 kDa PEG on Cys 68 (30 kDa DBCO-polyethylene glycol clicked to a bromoacetamido-PEG5-azide linker on the cysteine), also called 71 + PEG) YFGKLKSKLSVIRNLNDQVLFIDQGNRPLFEDMTDSDSRDNAPRTIFIISMYADSQPRGMAVTISVKCEKISTLSCENKIISFKEMNPPDNIKDTKSDIIFFQRSVPGHDNKMQFESSSYEGYFLACEKERDLFKLILKKEDELGDRSIMFTVQNED	4.51
Modified IL-18 polypeptide of SEQ ID NO: 18 (E06K, K53A, T63A) (ligand) YFGKLKSKLSVIRNLNDQVLFIDQGNRPLFEDMTDSDCRDNAPRTIFIISMYADSQPRGMAVAISVKCEKISTLSCENKIISFKEMNPPDNIKDTKSDIIFFQRSVPGHDNKMQFESSSYEGYFLACEKERDLFKLILKKEDELGDRSIMFTVQNED	5.13
Modified IL-18 polypeptide of SEQ ID NO: 10 (E06K, K53A, S55A, T63A) (ligand) YFGKLKSKLSVIRNLNDQVLFIDQGNRPLFEDMTDSDCRDNAPRTIFIISMYADAQPRGMAVAISVKCEKISTLSCENKIISFKEMNPPDNIKDTKSDIIFFQRSVPGHDNKMQFESSSYEGYFLACEKERDLFKLILKKEDELGDRSIMFTVQNED	5.61
